target: Recombinant ROCK2 (Homo sapiens (Human), UniProt O75116); test: Lance Ultra Kinase Assay, ROCK2 inhibition; type: biochemical; conditions: ATP at Km, 30 min pre-incubation, 1 h reaction
Sequence (O75116 whole entry): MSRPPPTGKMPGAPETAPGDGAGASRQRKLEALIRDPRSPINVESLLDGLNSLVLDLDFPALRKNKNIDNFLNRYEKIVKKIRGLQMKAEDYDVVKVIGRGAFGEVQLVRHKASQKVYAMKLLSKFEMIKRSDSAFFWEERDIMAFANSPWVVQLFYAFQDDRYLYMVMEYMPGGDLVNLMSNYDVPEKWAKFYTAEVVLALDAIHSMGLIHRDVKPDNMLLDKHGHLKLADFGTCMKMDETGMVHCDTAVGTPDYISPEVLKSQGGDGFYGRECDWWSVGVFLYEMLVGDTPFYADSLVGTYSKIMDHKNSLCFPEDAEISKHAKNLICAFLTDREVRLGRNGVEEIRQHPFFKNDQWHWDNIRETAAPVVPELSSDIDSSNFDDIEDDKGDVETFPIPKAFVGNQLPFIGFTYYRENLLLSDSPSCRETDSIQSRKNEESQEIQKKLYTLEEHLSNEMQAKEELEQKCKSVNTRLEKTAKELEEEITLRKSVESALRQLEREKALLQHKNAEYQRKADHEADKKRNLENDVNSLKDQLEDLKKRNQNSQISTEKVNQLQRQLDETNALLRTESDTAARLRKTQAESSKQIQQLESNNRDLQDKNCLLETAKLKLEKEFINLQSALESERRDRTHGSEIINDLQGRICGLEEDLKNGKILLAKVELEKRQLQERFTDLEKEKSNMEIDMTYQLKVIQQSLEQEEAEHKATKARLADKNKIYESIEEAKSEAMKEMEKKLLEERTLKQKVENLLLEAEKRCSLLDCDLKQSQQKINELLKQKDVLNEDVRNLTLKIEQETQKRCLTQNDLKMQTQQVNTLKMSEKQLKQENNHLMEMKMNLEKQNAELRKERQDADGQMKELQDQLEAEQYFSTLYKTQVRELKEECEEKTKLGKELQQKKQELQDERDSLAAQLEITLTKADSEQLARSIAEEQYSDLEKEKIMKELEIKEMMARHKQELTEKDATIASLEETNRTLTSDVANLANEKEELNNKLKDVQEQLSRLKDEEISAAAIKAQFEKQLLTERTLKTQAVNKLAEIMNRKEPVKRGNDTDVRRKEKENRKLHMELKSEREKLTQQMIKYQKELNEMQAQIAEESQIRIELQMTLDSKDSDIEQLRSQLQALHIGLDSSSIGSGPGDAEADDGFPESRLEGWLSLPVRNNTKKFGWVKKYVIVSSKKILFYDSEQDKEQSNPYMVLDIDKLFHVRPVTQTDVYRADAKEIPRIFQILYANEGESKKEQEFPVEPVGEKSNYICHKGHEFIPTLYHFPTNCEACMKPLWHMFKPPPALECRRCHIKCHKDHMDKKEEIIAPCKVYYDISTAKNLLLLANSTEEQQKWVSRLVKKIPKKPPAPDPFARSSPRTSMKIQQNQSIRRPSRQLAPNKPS
IC50 values for the molecules below.

>  <molecule>
Cc1cccc(C(CN)C(=O)Nc2cccc3c(-c4cn[nH]c4)c[nH]c23)n1 (racemic)

>  <IC50, nM>
13

$$$$
>  <molecule>
COc1cccc([C@@H](C(=O)Nc2cccc3c(-c4cn[nH]c4)c[nH]c23)C2CCN(C)CC2)c1 (single isomer, unassigned)

>  <IC50, nM>
23

$$$$
>  <molecule>
NCC(C(=O)Nc1cccc2c(-c3cn[nH]c3)c[nH]c12)C1CCOCC1 (single isomer, unassigned) [Example 27]

>  <IC50, nM>
66

$$$$
>  <molecule>
NCC(NC(=O)c1cccc2c(-c3cn[nH]c3)c[nH]c12)c1ccc(CO)cc1 (racemic)

>  <IC50, nM>
4.9

$$$$
